The measurements presented in this section are drawn from the supplement of paper PMC10290057.

Measured efficacy of individual entries
tested on: HCT116; assay: efficacy (fitted maximal change in viability relative to DMSO control); higher = less cytotoxic (negative = loss of viability); settings: 48 h
Could you give me the number in %? Just the number is fine.

Observe how each entry below is paired with its result.
C[C@]12CC(=O)[C@H]3[C@@H](CC\C4=C\C(=O)\C=C/[C@]34C)[C@@H]1CC[C@]2(O)C(=O)CO [Prednisone]: 8.5
CC(C)(O)C[S+](=O)([O-])Nc1ccc2c(c1)CCN(C(=O)COc1cccnc1)C2 [NAMPT-IN-1]: -92.6
CN1CCC(CNc2ccc3ncc(-c4cccc(OC(F)(F)F)c4)n3n2)CC1 [SGI-1776]: -102
C[N]1C=NC=C1C(N)(C2=CC=C(Cl)C=C2)C3=CC\4=C(C=C3)N(C)C(=O)\C=C4C5=CC(=CC=C5)Cl (stereo not drawn) [Tipifarnib,Freebase]: -120
C[C@]12CC[C@H]3[C@@H](CCC/4=C/C(=O)CC[C@]34C)[C@@H]1CC[C@@H]2OC(=O)CCC5CCCC5 [Testosterone cypionate]: -12
N#CCC1(n2cc(-c3ncnc4[nH]ccc34)cn2)CN(C2CCN(C(=O)c3ccnc(C(F)(F)F)c3F)CC2)C1 [Itacitinib]: -26.4

Q: Consider the compound shown here: C[S+](=O)([O-])OCCCCO[S+](C)(=O)[O-] [Busulfan] What is its recorded efficacy?
A: -5.76

Q: Cool, now CN1N(C2=CC=CC=C2)C(=O)C(=C1/C3=CC=CC=C3)/C(=O)C4=CC=C(C)C(=C4N)C5=CC=C6N=C(C)C=CC6=C5 [AMG PERK 44]
A: -31.8

Q: Cool, now N#CC(c1ccnc(NCCc2cccnc2)n1)c1nc2ccccc2s1 (stereo not drawn) [JNK Inhibitor V]
A: -92.2

Q: Cool, now CS[C@H]1SC[C@@H]2C(=O)N(C)[C@H](C(C)C)C(=O)OC[C@H](NC(=O)c3cnc4ccccc4n3)C(=O)N[C@H](C)C(=O)N(C)[C@H]1C(=O)N(C)[C@H](C(C)C)C(=O)OC[C@H](NC(=O)c1cnc3ccccc3n1)C(=O)N[C@H](C)C(=O)N2C [Echinomycin]
A: -72.6

Q: Cool, now Cn1cc(/C=C/C(=O)c2cccc(F)c2)cc1/C=C/C(=O)NO [MC-1568]
A: -49.8

Q: Cool, now "Cc1cccc(Nc2nc(-c3ccncc3)cs2)c1"
A: -69.9

Q: Cool, now CO[C@H]1/C=C/O[C@@]2(C)Oc3c(C)c(O)c4c(O)c(c(/C=N/N5CCN(C)CC5)c(O)c4c3C2=O)NC(=O)/C(C)=C\C=C\[C@H](C)[C@H](O)[C@@H](C)[C@@H](O)[C@@H](C)[C@H](OC(C)=O)[C@@H]1C [Rifampicin]
A: -20.5

====

test system: HCT116; assay: AC50 cell viability (CellTiter-Glo); higher = less potent; conditions: 48 h
Structures can show the parent of a compound that is named as a salt.
PROPERTY_NAME: AC50 cell viability (µM)
Could you give me the number in µM? Just the number is fine.

Observe how each entry below is paired with its result.
CC1(C)OC/2=C(\[C@H](NCC3=CC=CC=C3)[C@@H]1O)C(=O)C4=CC=CC=C4C2=O: 2.95
C=CC(=O)Nc1cccc(Oc2nc(Nc3ccc(N4CCN(C)CC4)cc3)nc3ccsc23)c1: 8.33
NC(=O)Nc1cc(-c2cccc(F)c2)sc1C(=O)N[C@H]1CCCNC1: 0.833
CCN(CC)CCOc1ccc(/C(=C(\Cl)c2ccccc2)c2ccccc2)cc1 [Clomifene citrate]: 8.33
O=[S+]([O-])(Nc1ccc(-c2cccnc2)c2cccnc12)c1cccc(C(F)(F)F)c1 [Compound 22d]: 4.17
CC(C)C1=N[N](C\2=C1C(=O)N\C(=N2)CC3=CC=C(OCCO)C=C3)C4=C(Cl)C=CC=C4Cl: 0.0295
COc1cccc2c(NCc3ccccc3)nc(-n3c(N)nc4ccccc43)nc12: 5.9

# context switch: different compound, same AC50 cell viability
Q: What reported AC50 cell viability corresponds to "CC\1=C/C=C\C=[N]1[Pt](N)(Cl)Cl" on HCT116?
A: 20.9
